# Assay system: HER2 (Homo sapiens (Human))
# Sequence (P04626 23-1255): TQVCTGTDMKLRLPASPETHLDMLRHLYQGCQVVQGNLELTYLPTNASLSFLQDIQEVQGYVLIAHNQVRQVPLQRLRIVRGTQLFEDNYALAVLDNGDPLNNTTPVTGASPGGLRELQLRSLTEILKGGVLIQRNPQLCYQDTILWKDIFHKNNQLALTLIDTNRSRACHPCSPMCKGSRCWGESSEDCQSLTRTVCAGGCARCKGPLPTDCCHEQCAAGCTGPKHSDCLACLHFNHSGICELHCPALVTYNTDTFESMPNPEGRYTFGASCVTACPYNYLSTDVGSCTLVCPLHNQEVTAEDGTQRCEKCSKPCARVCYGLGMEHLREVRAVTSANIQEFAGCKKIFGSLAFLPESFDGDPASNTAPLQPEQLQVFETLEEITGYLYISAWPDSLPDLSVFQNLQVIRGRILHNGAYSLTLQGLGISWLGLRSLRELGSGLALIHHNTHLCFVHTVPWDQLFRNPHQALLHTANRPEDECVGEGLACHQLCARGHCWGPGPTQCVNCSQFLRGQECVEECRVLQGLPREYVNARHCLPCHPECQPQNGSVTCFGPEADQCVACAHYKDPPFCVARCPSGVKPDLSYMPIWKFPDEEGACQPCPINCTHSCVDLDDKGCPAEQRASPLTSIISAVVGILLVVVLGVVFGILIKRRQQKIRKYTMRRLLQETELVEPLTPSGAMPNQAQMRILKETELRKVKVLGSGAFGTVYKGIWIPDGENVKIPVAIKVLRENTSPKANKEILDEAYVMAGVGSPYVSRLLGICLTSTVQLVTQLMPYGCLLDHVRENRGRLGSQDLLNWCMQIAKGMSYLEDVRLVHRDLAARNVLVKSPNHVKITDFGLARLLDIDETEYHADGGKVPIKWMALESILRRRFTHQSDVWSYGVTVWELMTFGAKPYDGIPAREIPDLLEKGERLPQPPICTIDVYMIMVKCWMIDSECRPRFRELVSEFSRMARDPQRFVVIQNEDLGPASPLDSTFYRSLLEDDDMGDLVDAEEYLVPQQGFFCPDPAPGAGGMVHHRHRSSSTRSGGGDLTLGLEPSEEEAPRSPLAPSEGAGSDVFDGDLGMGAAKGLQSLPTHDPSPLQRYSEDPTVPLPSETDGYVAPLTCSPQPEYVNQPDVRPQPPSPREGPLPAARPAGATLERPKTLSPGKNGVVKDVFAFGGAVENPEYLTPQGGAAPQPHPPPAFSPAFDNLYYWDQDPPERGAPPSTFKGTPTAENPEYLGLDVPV
# Test name: In vitro enzymology test (HTRF kinase activity)
# Type: biochemical
# Condition info: read-out: Enzyme activity (IC50 nM) HER2
Quantity measured: IC50 (nM)

- C=CC(=O)N1CC(Nc2cc3c(Nc4ccc(F)c(Cl)c4)ncnc3cc2OC)C1 [Example 1]: 0.5
- C=CC(=O)N1CCC(Nc2cc3c(Nc4ccc(F)c(Cl)c4)ncnc3cc2OCCOC)CC1 [Example 17]: 0.4
- C=CC(=O)N1CCC(Nc2cc3c(Nc4ccc(OCc5ccccn5)c(Cl)c4)ncnc3cc2OC)CC1 [Example 8]: 1.2
- C=CC(=O)N1CCC(Nc2cc3c(Nc4cccc(Br)c4)ncnc3cc2OC)CC1 [Example 15]: 0.2
- C=CC(=O)N1CC(Nc2cc3c(Nc4cccc(Br)c4)ncnc3cc2OC)C1 [Example 14]: 0.2
- C=CC(=O)N1CC(Nc2cc3c(Nc4cccc(C(C)=O)c4)ncnc3cc2OC)C1 [Example 13]: 0.5
- C=CC(=O)N1CCC(Nc2cc3c(Nc4ccc(F)c(Cl)c4)ncnc3cc2O[C@H]2CCOC2)CC1 [Example 4]: 0.4
- C=CC(=O)N1CCC(Nc2cc3c(Nc4ccc(F)c(Cl)c4)ncnc3cc2OC)CC1 [Example 2]: 0.2
- C=CC(=O)N1CC(Nc2cc3c(Nc4ccc(F)c(Cl)c4)ncnc3cc2O[C@H]2CCOC2)C1 [Example 3]: 0.3
- C=CC(=O)N1CC(Nc2cc3c(Nc4ccc(F)c(Cl)c4)ncnc3cc2OCCOC)C1 [Example 16]: 0.3
